assayTarget: Bacterial 70S ribosome
assayComment: Inhibition of ribosome-mediated translation in Cell-free Escherichia coli protein synthesis system using pCmGFP as plasmid incubated at 30 degreeC measured every 20 mins by invitro coupled transcription-translation system based fluorescence analysis
valueKind: IC50 (µM)
Quick note: give the figure in µM, leave out the unit.

// query Hi! What's the reported IC50 for C[C@H](NC(=O)[C@H](CCN)NC(=O)[C@@H](N)CCCCN)C(=O)NCC(=O)N[C@H](CCCN)C(=O)N1CCC[C@H]1C(=O)N[C@@H](Cc1c[nH]cn1)C(=O)N[C@@H](CCCCN)C(=O)N/C(=C\CCNC(=N)N)C(=O)O on Bacterial 70S ribosome?
// result 17
